Origin of the recorded values: patent US10618914B2

# System: STAT3
# Test name: HCS STAT3 assay
# Assay type: cell-based
# Protocol conditions: Table 2; read-out: STAT3 (IC50)
IC50 listing for selected molecules.
Express the result in µM but write the number alone.

Before answering, review these 5 worked examples.
- COc1ccc(C2=Nn3c(nnc3-c3nn(CC(=O)OC(C)(C)C)c4c3CCC4)SC2C)cc1 (centres unmarked): 34.1
- COc1ccc(C2=Nn3c(nnc3-c3cc(-c4cccc(Cl)c4)n[nH]3)SC2C)cc1 (centres unmarked): 8.7
- COC(=O)Cn1nc(-c2nnc3n2N=C(c2ccc(OC)cc2)C(C)S3)c2c1CCC2 (centres unmarked): 25.3
- COc1ccc(C2=Nn3c(nnc3-c3nn(Cc4ccccc4)c4c3CCC4)SC2C)cc1 (centres unmarked): 7.6
- COc1ccc(C2=Nn3c(nnc3-c3cc(-c4ccc(F)cc4)n[nH]3)SC2C)cc1 (racemic): 4.2

Prompt line: Requested read-out: IC50. Entry: COc1ccc(C2=Nn3c(nnc3-c3[nH]nc4c3CCC4)SC2C)cc1 (centres unmarked)
Response line: 8.8

Prompt line: Sample CC1Sc2nnc(-c3nn(C)c4c3CCC4)n2N=C1c1ccc(Cl)c(Cl)c1 (centres unmarked) — what was its IC50?
Response line: 7.8

Prompt line: Entry Clc1ccc(C2=Nn3c(nnc3-c3[nH]nc4c3CCC4)SC2Cc2ccccc2)cc1Cl (centres unmarked) : reported IC50 = ?
Response line: 7.5

Prompt line: Param item = CCN(CC)CCC1Sc2nnc(-c3cc(-c4ccccc4)n[nH]3)n2N=C1c1ccc(OC)cc1 (centres unmarked) ; retrieve measured IC50.
Response line: 8.8

Prompt line: What measured IC50 goes with Clc1ccc(C2=Nn3c(nnc3-c3cc(-c4ccccc4)n[nH]3)SC2Cc2ccccc2)cc1Cl (centres unmarked) ?
Response line: 22.6

----------
# System: STAT3
# Test name: HCS STAT3 assay
# Assay type: cell-based
# Protocol conditions: Table 4; read-out: STAT3 IC50 (converted)
Measured property: IC50

Below, 3 compounds whose answers are already recorded.
• Clc1ccc(C2=Nn3c(nnc3-c3cc(-c4ccccc4)n[nH]3)SC2)s1 [10b] = > 50 µM
• C1CCC(C2=Nn3c(nnc3-c3[nH]nc4c3CCC4)SC2)CC1 [13a] = > 30 µM
• C1=Nn2c(nnc2-c2[nH]nc3c2CCC3)SC1 [11a] = > 50 µM

// below: IC50 requested for another compound
Prompt line: Which IC50 value belongs to c1ccc(-c2cc(-c3nnc4n3N=C(c3ccncc3)CS4)[nH]n2)cc1 ?
Response line: > 50 µM

----------
# Test system: STAT3
# Test name: HCS STAT3 assay
# Format: cell-based
# Protocol conditions: Table 4; read-out: STAT3 IC50 (converted)
The following molecules are listed with their measured IC50 values.

Here are 5 molecules together with their reported answers.
• Clc1ccc(C2=Nn3c(nnc3-c3cc(-c4ccccc4)n[nH]3)SC2)cc1 [2b] = 9.6 µM
• c1cc(C2=Nn3c(nnc3-c3[nH]nc4c3CCC4)SC2)ccn1 [9a] = > 50 µM
• CC1=Nn2c(nnc2-c2[nH]nc3c2CCC3)SC1 [12a] = > 50 µM
• C1=Nn2c(nnc2-c2cc(-c3ccccc3)n[nH]2)SC1 [11b] = > 50 µM
• c1ccc(C2=Nn3c(nnc3-c3cc(-c4ccccc4)n[nH]3)SC2)cc1 [7b] = 27 µM

Prompt line: Form entry - test system: STAT3; read-out: IC50; molecule: c1ccc(C2=Nn3c(nnc3-c3[nH]nc4c3CCC4)SC2)cc1 [7a]
Response line: 21.2 µM

----------
# Tested on: STAT3
# Test name: HCS STAT3 assay
# Type: cell-based
# Protocol conditions: Table 2; read-out: STAT3 (IC50)
Measured property: pIC50
// returns pIC50 (minus log10 of molar concentration), number only

As a guide, the following entries are already answered.
- COc1ccc(C2=Nn3c(nnc3-c3nn(C(C)=O)c4c3CCC4)SC2C)cc1 (stereo not drawn) [compound 10421]: 4.43
- COc1ccc(C2=Nn3c(nnc3-c3[nH]nc4c3CCC4)SC2CCN)cc1 (stereo not drawn) [compound 10383]: 4.51
- COc1cccc(C2=Nn3c(nnc3-c3cc(-c4ccccc4)n[nH]3)SC2C)c1 (stereo not drawn) [compound 10475]: 5.15
- CC1Sc2nnc(-c3[nH]nc4c3CCC4)n2N=C1c1ccc(Br)cc1 (stereo not drawn) [compound 10476]: 4.73

Prompt line: Form field: pIC50 recorded for CC1Sc2nnc(-c3cc(-c4ccccc4)n[nH]3)n2N=C1c1ccc(F)c(F)c1 (stereo not drawn) [compound 10532] with STAT3 (enter value)
Response line: 5.07

Prompt line: # returns recorded pIC50 (system: STAT3) for COc1ccc(C2=Nn3c(nnc3-c3nn(C(=O)OC(C)(C)C)c4c3CCC4)SC2C)cc1 (stereo not drawn) [compound 10422]
Response line: 4.46

Prompt line: Requested read-out pIC50, target or system STAT3, entry CC1Sc2nnc(-c3cc(-c4ccccc4)n[nH]3)n2N=C1c1ccccc1 (stereo not drawn) [compound 10131]
Response line: 5.52

Prompt line: Lab request: please report pIC50 under test system STAT3 for COc1ccc(C2=Nn3c(nnc3-c3cc(-c4ccccc4)n[nH]3)SC2CC(=O)N(C)C)cc1 (stereo not drawn) [compound 10425]
Response line: 5.00

Prompt line: Record lookup: for STAT3, what pIC50 belongs to COc1ccc(C2=Nn3c(nnc3-c3[nH]nc4c3CSC4)SC2C)cc1 (stereo not drawn) [compound 10435] ?
Response line: 4.47

Prompt line: What value of pIC50 on STAT3 does CC1(C)Sc2nnc(-c3cc(-c4ccc(Cl)cc4)n[nH]3)n2N=C1c1ccccc1 [compound 10268] have?
Response line: 4.42

Prompt line: Give the reported pIC50 for CC1Sc2nnc(-c3cc(-c4ccccc4)n[nH]3)n2N=C1c1ccc(C(F)(F)F)cc1 (stereo not drawn) [compound 10478] (system: STAT3).
Response line: 4.44

Prompt line: Return pIC50 measured with STAT3 given this molecule: COc1ccc(C2=Nn3c(nnc3-c3cc(-c4ccccc4)n(C)n3)SC2C)cc1 (stereo not drawn) [compound 10542]
Response line: 5.19

----------
# Test system: STAT3
# Test name: HCS STAT3 assay
# Format: cell-based
# Protocol conditions: Table 2; read-out: STAT3 (IC50)
In this section, each of the molecules is paired with its reported pIC50.
# reply with the number alone; pIC50 is -log10 of concentration in mol/L

Some molecules with known pIC50 results, for comparison:
* COc1ccc(C2=Nn3c(nnc3-c3[nH]nc4c3CCC4)SC2CCO)cc1 (stereo not shown) | 4.31
* O=C(CC1Sc2nnc(-c3cc(-c4ccccc4)n[nH]3)n2N=C1c1ccccc1)N1CCCC1 (stereo not shown) | 4.43
* COc1ccc(C2=Nn3c(nnc3-c3cc(-c4ccccc4)n[nH]3)SC2C)cc1 (stereo not shown) | 5.12
* COc1ccc(C2=Nn3c(nnc3-c3cc(-c4ccccc4)nn3C)SC2C)cc1 (stereo not shown) | 5.33
* Cc1ccc(C2=Nn3c(nnc3-c3cc(-c4ccccc4)n[nH]3)SC2C)cc1 (stereo not shown) | 4.85
* CC1Sc2nnc(-c3cc(-c4ccccc4)n[nH]3)n2N=C1c1ccc(OC(F)(F)F)cc1 (stereo not shown) | 4.62
* c1ccc(C2=Nn3c(nnc3-c3[nH]nc4c3CCC4)SC2c2ccccc2)cc1 (racemic) | 4.58
* CC1(C)Sc2nnc(-c3[nH]nc4c3CCC4)n2N=C1c1ccc(Cl)c(Cl)c1 | 4.73

Prompt line: Report pIC50 for CC1Sc2nnc(-c3[nH]nc4c3CCC4)n2N=C1c1ccccc1 (racemic) please.
Response line: 4.74

Prompt line: # query: pIC50 of entry COC(=O)CC1Sc2nnc(-c3cc(-c4ccccc4)n[nH]3)n2N=C1c1ccccc1 (stereo not shown)
Response line: 4.75

Prompt line: Record request: pIC50 value, item CCN(CC)c1ccc(C2=Nn3c(nnc3-c3cc(-c4ccccc4)nn3C)SC2C)cc1 (stereo not shown)
Response line: 5.24

Prompt line: Consider the molecule shown here: CC1Sc2nnc(-c3cc(-c4cccc(Cl)c4)n[nH]3)n2N=C1c1ccc(Cl)c(Cl)c1 (stereo not shown) What is its recorded pIC50?
Response line: 4.49

Prompt line: Which pIC50 reading was recorded for the molecule CC1Sc2nnc(-c3cc(-c4ccccc4)n[nH]3)n2N=C1c1ccc(N2CCOCC2)cc1 (stereo not shown) ?
Response line: 4.41

----------
Items are presented alongside their recorded IC50.
# System: STAT3
# Test name: HCS STAT3 assay
# Assay type: cell-based
# Protocol conditions: Table 2; read-out: STAT3 (IC50)
Answer format: numeric, µM implied, no suffix.

A selection of reference data follows.
- CC1Sc2nnc(-c3[nH]nc4c3CCC4)n2N=C1c1ccc(F)cc1 (racemic): 27.7
- COc1cccc(C2=Nn3c(nnc3-c3[nH]nc4c3CCC4)SC2C)c1 (stereo not shown): 40.1
- COC(=O)CC1Sc2nnc(-c3cc(-c4ccccc4)n[nH]3)n2N=C1c1ccc(OC)cc1 (stereo not shown): 11.6

Prompt line: Please state recorded IC50 (tested on STAT3) of CC1Sc2nnc(-c3cc(-c4ccccc4)n[nH]3)n2N=C1c1ccccc1 (stereo not shown) [compound 10261]
Response line: 12.3

Prompt line: Fill in the recorded IC50 for this compound, with STAT3 as test system: COc1ccc(C2=Nn3c(nnc3-c3cc(-c4ccccc4)n[nH]3)SC2C(C)C)cc1 (stereo not shown)
Response line: 21.6

Prompt line: Give recorded IC50 with STAT3 for the following compound: CC1Sc2nnc(-c3[nH]nc4c3CCC4)n2N=C1c1ccc(Cl)cc1 (stereo not shown)
Response line: 7.21
